Just for reference, PubChem BioAssay (Tox21) is where these values come from.

measurement-target: Cytochrome P450 3A4 (Homo sapiens)
assay-overview: Cytochrome P450 Family 3 Subfamily A Member 4 (CYP3A4) small molecule antagonists: luciferase reporter qHTS assay (AID 1671201); further: nearly all actives have a fitted effect of over 50% in size
condition-context: P450-Glo CYP3A4 enzyme, luciferin luminescence, 1 h; series mostly up to 115 µM
Results filed as inconclusive are left out. Calls of active or inactive are those of the source. The call rests on the fitted dose curve; in most records, active means well fitted inhibition curve with a large enough effect in the repeat runs; inconclusive means weak or mixed curves; inactive means no such curve, though single readings can be large or run the other way.
Choose one outcome from this list and give only that: active, inactive

Task: So what was the verdict on COc1ccccc1N1CCN(CC(O)COc2cccc3ccccc23)CC1 (stereo unspecified) in this test?
Result: inactive

Task: Tell me the recorded outcome of this test for `O=C(CCc1ccc(O)cc1)c1c(O)cc(O)cc1O` .
Result: active

Task: Could you please tell me the result logged for `O=C=Nc1ccc(Cl)c(Cl)c1` in this assay?
Result: active

Task: Given `O=C1c2ccccc2C(=O)N1CCc1noc(-c2ccc(CN3CCCCCC3)s2)n1` , state the outcome it received in this test.
Result: active

Task: I would be grateful if you could indicate the recorded call for `CC/C=C1/OC(=O)c2ccccc21` .
Result: inactive

Task: What did this assay record as the result for `O=Cc1c2ccccc2c(Cl)c2ccccc12` ?
Result: inactive

Task: Outcome logged for `CCC=CC#N` in this assay:
Result: inactive

Task: Each molecule tested received a call. Report the one for `O=C1CCCCCCCCCCOCCCCO1` .
Result: active

Task: Called result for `CCCC(=O)C(=O)O`
Result: inactive

Task: Hi, sorry to bother you, what did the test record for `N#CCCN(CCO)CCO` ?
Result: inactive

Task: Per the assay record, what outcome was assigned to `COC(=O)c1nc(Cl)c(Cl)nc1N` ?
Result: inactive

Task: Identify the outcome logged in this assay for the molecule shown: `Oc1cccc(O)c1O`
Result: inactive

Task: Record lookup: outcome of this test for `COC(=O)CS` ?
Result: inactive

Task: Fill in: this test's call for `CCN(CC)CCNC(=O)COc1ccc(OC)cc1` is ___
Result: inactive

Task: Kindly provide the recorded test outcome for the following molecule: `C=Cc1ccc(S(=O)(=O)O)cc1`
Result: inactive

Task: # fetch the recorded call for `CCCCCCCCCI` here
Result: inactive

Task: Any idea what this test logged for `COc1ccccc1NC(=O)c1cc2ccccc2cc1O` ?
Result: active

Task: I would be grateful if you could indicate the recorded call for `CCC(=O)OC` .
Result: inactive

Task: Hi team, can someone confirm the assay call for `COc1ncnc(NS(=O)(=O)c2ccc(N)cc2)c1OC` ?
Result: inactive

Task: Outcome? `Oc1c(I)cc(I)c2cccnc12`
Result: inactive

Task: Which outcome did this test record for the molecule NC1[C@H]2CN(c3nc4c(cc3F)c(=O)c(C(=O)O)cn4-c3ccc(F)cc3F)C[C@@H]12 (stereo partly specified) ?
Result: inactive

Task: Give the logged outcome of this assay for the following molecule: CC(CCC(=O)O)C(=O)O (stereo unspecified)
Result: inactive

Task: Record lookup: outcome of this test for CCCCC(CC)CN (stereo unspecified) ?
Result: inactive

Task: Which outcome was entered for the molecule `O=C(O)CCC(=O)C(=O)O` in this test?
Result: inactive

Task: Assay outcome for `CCCCCCCCN` : what was it?
Result: inactive

Task: Status in this test for CCCCCCCCC(CCCCCC)C(=O)O (stereo unspecified) ?
Result: inactive

Task: Outcome logged for `CCC(C)(C)OC` in this assay:
Result: inactive

Task: What outcome does the record of this test show for `O=C(OC(=O)c1ccccc1)c1ccccc1` ?
Result: inactive

Task: // return assay outcome for `O=C1NCCN1CCO`
Result: inactive

Task: GET /call?item= CCC1CO1 (stereo unspecified) returns the recorded outcome of this test.
Result: inactive

Task: Entry `CCC1(CO)COCOC1` : call = ?
Result: inactive

Task: Query: recorded result category for `Oc1cccc(Nc2ccccc2)c1` in this test
Result: active

Task: Please let me know the test result on file for `CC(=O)Oc1ccc([N+](=O)[O-])cc1CCl` .
Result: inactive

Task: Hi team, can someone confirm the assay call for `C[C@H]1c2cccc(O)c2C(O)=C2C(=O)[C@]3(O)C(O)=C(C(N)=O)C(=O)[C@@H](N(C)C)[C@@H]3[C@@H](O)[C@@H]21` ?
Result: inactive

Task: Given `C1COC1` , state the outcome it received in this test.
Result: inactive

Task: // return assay outcome for `O=C1Cc2cc(Cl)ccc2N1`
Result: inactive

Task: Dear all, I need the recorded test outcome for `O=C(O)CCc1nc(-c2ccccc2)c(-c2ccccc2)o1` , thank you.
Result: inactive

Task: Can you look up the reported call for `CN1C(C(=O)Nc2ccccn2)=C(O)c2sccc2S1(=O)=O` for me?
Result: inactive

Task: Hello, I am checking results. What call was entered for `Clc1cc(Cl)nc(Cl)n1` ?
Result: inactive

Task: Answer briefly: the call reported for c1cc(N(CC2CO2)CC2CO2)ccc1Cc1ccc(N(CC2CO2)CC2CO2)cc1 (stereo unspecified) in this assay.
Result: active

Task: State the result this test recorded for `CCCCCCCCOc1ccc(C(=O)O)cc1` .
Result: inactive

Task: Status in this test for `CCOC(=O)/C=C/C(=O)OCC` ?
Result: inactive

Task: Dear all, I need the recorded test outcome for `CCCCCCCCCCC(=O)O` , thank you.
Result: inactive

Task: For `CC(C)=CCC/C(C)=C/CC/C(C)=C/CCC(=O)OC/C=C(\C)CCC=C(C)C` , what call appears in the results of this test?
Result: inactive

Task: Hello, I am checking results. What call was entered for `CC(C)(C)C(=O)C(=O)O` ?
Result: inactive

Task: Could you kindly confirm the outcome this assay logged for `Brc1cc(Br)c(Oc2cc(Br)c(Br)cc2Br)cc1Br` ?
Result: inactive

Task: Could you please tell me the result logged for `C=C1C[C@@]23CC[C@H]4[C@@](C)(CCC[C@@]4(C)C(=O)O[C@@H]4O[C@H](CO)[C@@H](O)[C@H](O)[C@H]4O)[C@@H]2CC[C@]1(O[C@@H]1O[C@H](CO)[C@@H](O)[C@H](O[C@@H]2O[C@H](CO)[C@@H](O)[C@H](O)[C@H]2O)[C@H]1O[C@@H]1O[C@H](CO)[C@@H](O)[C@H](O)[C@H]1O)C3` in this assay?
Result: inactive

Task: Tell me the assay call for `COc1ccccc1N1CCN(CCCCNC(=O)c2ccc(-c3ccc(C(C)=O)cc3)cc2)CC1` please.
Result: inactive

Task: Test call for this molecule, please: `c1ccc2c(c1)CCc1ccccc1N2`
Result: inactive

Task: Tell me the assay call for `OC[C@H]1O[C@@H](n2cnc3c(=S)nc[nH]c32)[C@H](O)[C@@H]1O` please.
Result: inactive

Task: Identify the outcome logged in this assay for the molecule shown: `COC(=O)CCS`
Result: inactive
